Tested on: HCT-116 colon
Assay: NCI-60 one-dose screen, 48 h
Details: 10 µM unless noted
Compounds without any hit were thinned out: in the full panel of roughly 83,000, 20% have a hit. Activity calls are given as the source filed them. How the source made its calls: active means growth percent below 10; inactive means the rest.
Outcomes: active, inactive

>  <compound>
COc1ccc2[nH]c(O)c(C(=Nc3ccc(N(C)C(=O)CN4CCN(C)CC4)cc3)c3ccccc3)c2c1

>  <qualitative_label>
inactive

$$$$
>  <compound>
CC1=C(SCCC(=O)OC(C[Se]C2=C(C)C(=O)c3ccccc3C2=O)C(=O)NCCCCCC(=O)OCc2ccccc2)C(=O)c2ccccc2C1=O (configuration not stated)

>  <qualitative_label>
active

$$$$
>  <compound>
CC1(C)CC(=O)C2=C(C1)N(c1ccc(OC(F)(F)F)cc1)C(N)=C(C#N)C2c1ccc(Cl)cc1 (configuration not stated)

>  <qualitative_label>
inactive

$$$$
>  <compound>
COc1ccc(-c2c(N)n[nH]c2-c2ccc(Cl)cc2O)cc1OC

>  <qualitative_label>
inactive

$$$$
>  <compound>
COc1ccc(-c2nc(SCCC(C)C)nc(N/N=C\c3ccccc3O)c2C#N)cc1

>  <qualitative_label>
inactive

$$$$
>  <compound>
Clc1cccc(Cl)c1C(Nc1nc2ccccc2s1)Nc1nc2ccccc2s1

>  <qualitative_label>
inactive

$$$$
>  <compound>
O=C(NC(CSSCC(NC(=O)c1ccccc1)C(=O)O)C(=O)O)c1ccccc1 (configuration not stated)

>  <qualitative_label>
inactive

$$$$
>  <compound>
N[C@@H](CCCCNCC(=O)O)C(=O)O

>  <qualitative_label>
inactive

$$$$
>  <compound>
CC1O[C@@H](OC2[C@H](OC(=O)/C=C/c3ccc(O)c(O)c3)C(COC3O[C@H](C)C(O)C(O)[C@@H]3O)O[C@@H](OCCc3ccc(O)c(O)c3)[C@H]2O)[C@@H](O)C(O)[C@H]1O (some centres not stated)

>  <qualitative_label>
inactive

$$$$
>  <compound>
COc1cccc(-c2nn(-c3ccccc3)cc2-c2ccnc(NCCCNC(=O)c3ccccc3)c2)c1

>  <qualitative_label>
inactive

$$$$
>  <compound>
CCOC(=O)c1c2ncccc2n2c(=O)n(-c3ccccc3C)nnc12

>  <qualitative_label>
inactive

$$$$
>  <compound>
CC/C=C\C[C@H](O)C/C=C1/C(=O)C=C[C@@H]1C/C=C\CCCCO

>  <qualitative_label>
active

$$$$
>  <compound>
CN(C)CCCn1c(=O)c2ccccc2c2ccccc21

>  <qualitative_label>
inactive

$$$$
>  <compound>
NS(=O)(=O)c1cnccc1Sc1ccncc1S(N)(=O)=O

>  <qualitative_label>
inactive

$$$$
>  <compound>
COC(=O)[C@]12CC[C@@H](C)[C@H](C)[C@@H]1C1=CC[C@@H]3[C@@]4(C)C(C=O)=C[C@@](C)(COS(C)(=O)=O)[C@@H]4C(=O)C[C@@]3(C)[C@]1(C)CC2

>  <qualitative_label>
active

$$$$
>  <compound>
CCCCCCN(CCCCCC)c1ccc(/C=C2/SC(=O)N(c3nc(N4CCCC4)nc(N4CCCC4)n3)C2=O)c(C)c1

>  <qualitative_label>
inactive

$$$$
>  <compound>
Cc1cc(Cl)ccc1Nc1nc(C(F)(F)F)ccc1C(=O)N/N=C/c1ccc(N(C)C)cc1

>  <qualitative_label>
inactive

$$$$
>  <compound>
O=C(c1ccccc1)c1c(/C=C/c2ccc(Cl)cc2)nc2ccccc2c1/C=C/c1cccs1

>  <qualitative_label>
inactive

$$$$
>  <compound>
O=C(CSc1nnc(-c2ccc(NC(=O)c3cccnc3)cc2)o1)N[C@@H](Cc1ccc(O)cc1)C(=O)O

>  <qualitative_label>
inactive

$$$$
>  <compound>
Cc1ccccc1NC(=O)N/C(N)=N/c1nc(-c2cccc([N+](=O)[O-])c2)cs1

>  <qualitative_label>
inactive

$$$$
>  <compound>
C#Cc1cccc(NC(=O)c2ccc(NC(=O)CCl)cc2)c1

>  <qualitative_label>
active

$$$$
>  <compound>
c1c[nH]c(CNC2CCCCC2)c1

>  <qualitative_label>
inactive

$$$$
>  <compound>
COc1ccc(-c2cc(-c3ccc(Nc4nc(Nc5ccc(Cl)cc5)nc(Nc5ccc(Cl)cc5)n4)cc3)nc(N)c2C#N)cc1

>  <qualitative_label>
inactive

$$$$
>  <compound>
O=C(NCCNc1cc(-c2cn(-c3ccccc3)nc2-c2cccc(O)c2)ccn1)Nc1ccccc1

>  <qualitative_label>
inactive

$$$$
>  <compound>
C=C1C(=O)O[C@H]2[C@H]1CC/C(COC(=O)C(=O)c1c[nH]c3ccc(OC)cc13)=C\CC[C@@]1(C)O[C@@H]21

>  <qualitative_label>
active

$$$$
>  <compound>
COC(=O)[C@]12CC[C@@H](C)[C@H](C)[C@@H]1C1=CC[C@@H]3[C@@]4(C)C(C=O)=C[C@@](C)(COC(C)=O)[C@@H]4C(=O)C[C@@]3(C)[C@]1(C)CC2

>  <qualitative_label>
active

$$$$
>  <compound>
COc1cccc(Nc2nccc(Nc3ccc4[nH]ncc4c3)n2)c1

>  <qualitative_label>
active

$$$$
>  <compound>
COc1cc2c(cc1-c1c(C)noc1C)ncc1nc(C3CCC(F)(F)CC3)n(C3CCC(OC(F)F)CC3)c12 (configuration not stated)

>  <qualitative_label>
inactive

$$$$
>  <compound>
O=[N+]([O-])c1ccc(OCCO)cc1

>  <qualitative_label>
inactive

$$$$
>  <compound>
O=[N+]([O-])c1ccc(C2CC(c3ccccc3)=Nc3ccccc3S2)cc1 (configuration not stated)

>  <qualitative_label>
inactive

$$$$
>  <compound>
COc1ccc(-c2nc(SC(C)C)nc(NNC(N)=S)c2C#N)cc1

>  <qualitative_label>
inactive

$$$$
>  <compound>
O=c1oc2ccccc2c(Cl)c1Cl

>  <qualitative_label>
inactive

$$$$
>  <compound>
COc1ccc(N=C(c2ccccc2)C2C(=O)c3ccccc3C2=O)cc1

>  <qualitative_label>
inactive

$$$$
>  <compound>
O=c1c2cc(F)ccc2sc2c(NCCN3CCCCC3)nc3ccccc3c12

>  <qualitative_label>
inactive

$$$$
>  <compound>
O=[N+]([O-])c1ccc(Sc2cccc[n+]2[O-])c2nonc12

>  <qualitative_label>
active

$$$$
>  <compound>
O=C(NCCCNc1cc(-c2cn(-c3ccccc3)nc2-c2cccc(O)c2)ccn1)c1ccc(F)cc1

>  <qualitative_label>
inactive

$$$$
>  <compound>
Cc1cc(=O)[nH]c(N=Nc2c(O)[nH]c3ccccc23)n1

>  <qualitative_label>
inactive

$$$$
